Recorded RP-LC retention time by entry
Experiment: gradient 5% acetonitrile 3 min, to 50% in 2 min, to 85% in 15 min, held 3 min, 100 µL/min
Details: column: Zorbax Extend-C18 2.1 x 50 mm; eluents: water / acetonitrile, 0.1% formic acid
parameter.measured: RP-LC retention time (s)

{"compound": "CCn1c(=O)n(CC(=O)N2CCCC2)c(=O)c2cnc(-c3ccc(Cl)cc3)nc21", "parameter.measured": "RP-LC retention time", "readout.units": "s", "value.measured": 1010}
{"compound": "COc1ccc(-c2nc3cnccn3c2Nc2cccc(Cl)c2)cc1OC", "parameter.measured": "RP-LC retention time", "readout.units": "s", "value.measured": 817}
{"compound": "Cc1ccc(-c2noc(-c3ccc(N4CCN(c5cc(C)ccc5C)CC4)nc3)n2)cc1", "parameter.measured": "RP-LC retention time", "readout.units": "s", "value.measured": 749}
{"compound": "O=C(c1c[nH]c2ccccc12)N1CCC2(CC1)NC(=O)N(Cc1ccccc1)C2=O", "parameter.measured": "RP-LC retention time", "readout.units": "s", "value.measured": 750}
{"compound": "Cc1ccc(S(=O)(=O)N(C)C)cc1-c1nnc(-c2ccccc2)o1", "parameter.measured": "RP-LC retention time", "readout.units": "s", "value.measured": 971}
{"compound": "CCCS(=O)(=O)c1nc2ccc(NS(=O)(=O)c3ccc4c(c3)oc(=O)n4C)cc2s1", "parameter.measured": "RP-LC retention time", "readout.units": "s", "value.measured": 847}
{"compound": "CCn1ccc2cc(S(=O)(=O)N3CCC(C(=O)N4CCN(c5ccccn5)CC4)CC3)ccc21", "parameter.measured": "RP-LC retention time", "readout.units": "s", "value.measured": 674}
{"compound": "COc1ccc(S(=O)(=O)N2CCC(c3cnn(-c4cccc(C)c4)c3)CC2)cc1", "parameter.measured": "RP-LC retention time", "readout.units": "s", "value.measured": 1130}
{"compound": "Cc1c(CNCCc2ccco2)c(C(=O)O)c(C)n1Cc1ccc(F)cc1", "parameter.measured": "RP-LC retention time", "readout.units": "s", "value.measured": 709}
{"compound": "NC1=N[C@@]2(c3cc(NC(=O)c4ccc(F)cn4)ccc3F)COC[C@H]2CS1", "parameter.measured": "RP-LC retention time", "readout.units": "s", "value.measured": 674}
{"compound": "COc1ccccc1-c1noc(Cn2c(=O)n(-c3ccc(C)cc3)c(=O)c3sccc32)n1", "parameter.measured": "RP-LC retention time", "readout.units": "s", "value.measured": 911}
{"compound": "COc1ccc(OC)c2c1cc1n2CC(C)(C(=O)NC2CCCCCCC2)N(CCN(C)C)C1=O (stereo not drawn)", "parameter.measured": "RP-LC retention time", "readout.units": "s", "value.measured": 760}
{"compound": "Cn1ncc(N2CCC(C(=O)NCc3nc4ccccc4n3C)C2)cc1=O (stereo not drawn)", "parameter.measured": "RP-LC retention time", "readout.units": "s", "value.measured": 569}
{"compound": "COc1ccc(C2CC(=O)N(c3cccc(OC)c3)C(=O)C2)cc1", "parameter.measured": "RP-LC retention time", "readout.units": "s", "value.measured": 860}
{"compound": "COc1ccccc1-n1ccn2cc(-c3ccc(F)cc3)nc2c1=O", "parameter.measured": "RP-LC retention time", "readout.units": "s", "value.measured": 783}
{"compound": "CCCc1ccc(S(=O)(=O)N2CCCC2c2nc(-c3cccc(C)c3)no2)cc1 (stereo not drawn)", "parameter.measured": "RP-LC retention time", "readout.units": "s", "value.measured": 1330}
{"compound": "COc1ccc(N2CCN(c3cc(SCC(=O)NCc4ccc(Cl)cc4)ncn3)CC2)cc1", "parameter.measured": "RP-LC retention time", "readout.units": "s", "value.measured": 908}
{"compound": "CN(C(=O)CN1C(=O)C(O)(c2cccc(F)c2)c2ccccc21)c1ccccc1 (stereo not drawn)", "parameter.measured": "RP-LC retention time", "readout.units": "s", "value.measured": 856}
{"compound": "CC(=O)c1cccc(NC(=O)C2CC(=O)N(c3ccc4c(c3)CCN4C(=O)C3CCC3)C2)c1 (stereo not drawn)", "parameter.measured": "RP-LC retention time", "readout.units": "s", "value.measured": 760}
{"compound": "CC(C)c1ccc(CN2C[C@@H]3C(=O)N(CCc4ccccc4)C(=O)[C@@H]3C2)cc1", "parameter.measured": "RP-LC retention time", "readout.units": "s", "value.measured": 772}
{"compound": "O=C(NCC1CC1)C1CC(=O)N(c2ccc3c(c2)CCN3C(=O)C2CCC2)C1 (stereo not drawn)", "parameter.measured": "RP-LC retention time", "readout.units": "s", "value.measured": 719}
{"compound": "COC(=O)c1ccc(CSc2nnc(NC(=O)c3snnc3C)s2)o1", "parameter.measured": "RP-LC retention time", "readout.units": "s", "value.measured": 743}
{"compound": "CN(C)[C@@H]1CN(Cc2ccc(F)c(F)c2)CC[C@@H]1CO", "parameter.measured": "RP-LC retention time", "readout.units": "s", "value.measured": 434}
